B1: glmS ribozyme (parent)
chain: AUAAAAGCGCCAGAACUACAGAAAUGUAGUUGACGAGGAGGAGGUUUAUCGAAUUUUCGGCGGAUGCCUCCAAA

variants of: B1; assay: self-cleavage kobs at 640 uM GlcN6P; higher = faster cleavage; RNA array; settings: with glucosamine-6-phosphate
Variants at the floor of the assay were thinned out.
Each entry below carries its reported self-cleavage kobs at 640 uM GlcN6P.

Construct Sequence | Observed Result
AUAAAAGGGCCAAAACUACAGAAAUGUAGUUGACGAGGAGGAGGUUUAUCGAAAUUUCGGCAGAUGCCUCCAAA [C8G G13A U54A G62A] | < 1e-05 s⁻¹
AUAAAAGCGCCAGAACUACAGAAAUGUAGUUGACGAGGAGGAGGUUUAUCGGAAUUUCGGCGGAUGCCUCCAAA [A52G U54A] | 0.000442 s⁻¹
AUAAAAGCGCAAGAACUACAGAAAUGUAGUUGUCGAGGAGGAGGAUUAUCGAAUUUUCGGCGGAUGCCUCCAAA [C11A A33U U45A] | < 1e-05 s⁻¹
AUAAAAGCGCCAGAACUACAGAAAUGUAGUUCACGAGGAGGAGUUUUAUCGAAUUAUCGGCGGAUGCCUCCAAA [G32C G44U U56A] | < 1e-05 s⁻¹

Query: What does the record list as self-cleavage kobs at 640 uM GlcN6P for AUAAAAGCGCCAGAACUACAGAAAUGUAGUUGUCGAGGAGGAGUUGUAUCGAAUUUUCGGCGGAUGCCUCCAAA [A33U G44U U46G] ?
Reply: < 1e-05 s⁻¹

Query: What does the record list as self-cleavage kobs at 640 uM GlcN6P for AUAAAAGCGCCAGAAUUACAGAAAUGUAGUUGACGAGGAGGAGGUUUAUCGAACUUUCGGCGGAUGCCUCCAAA [C16U U54C] ?
Reply: 0.00641 s⁻¹

Query: What does the record list as self-cleavage kobs at 640 uM GlcN6P for AUAAAAGCGCCAGAACUACAGAAAUGUAGUUGACGAGAAGGAGGUUUAUCGAAUUUUCCGCGGAUGCCUCCAAA [G38A G59C] ?
Reply: < 1e-05 s⁻¹

Query: What does the record list as self-cleavage kobs at 640 uM GlcN6P for AUAAAAGCGCCUGAACUACAGAAAUGUAAUUGACGAGGAGGAGGUUUAUCGAGUUUUCGGCAGAUGCCUCCAAA [A12U G29A A53G G62A] ?
Reply: < 1e-05 s⁻¹

Query: What does the record list as self-cleavage kobs at 640 uM GlcN6P for AUAAAAGCGUCAGAACUACAGAAAUGUAGUUGCCGAGGAGGAGGUCUAUCCAAUUUUCGCCGGAUGCCUCCAAA [C10U A33C U46C G51C G60C] ?
Reply: < 1e-05 s⁻¹

Query: What does the record list as self-cleavage kobs at 640 uM GlcN6P for AUAAAAGUGCCAGAACUACAGAAAUGUAGUGGACGAGGAGGAGUUUUAUCGAAUUUUCGGCGGAUGCCUCGAAA [C8U U31G G44U C71G] ?
Reply: < 1e-05 s⁻¹

Query: What does the record list as self-cleavage kobs at 640 uM GlcN6P for AUAAAAGCGCCAGAACUACAGAAAUGUAGUUGACGAGAAGGAGUUUUAUCGAAUUUUCGGCUGAUGCCUCCAAA [G38A G44U G62U] ?
Reply: < 1e-05 s⁻¹

Query: What does the record list as self-cleavage kobs at 640 uM GlcN6P for AUAAAAGCGCCUGAACUACAGAAAUGUAUUUGACGAAGAGGAGGUUUAUCGAAUAUUCGGCGGAUGCCUCCAAA [A12U G29U G37A U55A] ?
Reply: 0.000291 s⁻¹
